Biological target: T1, IL-2 receptor βγ complex on pan T cells (human, UniProt P14784 27-551; P31785 23-369)
T1 sequence (looked up) 1: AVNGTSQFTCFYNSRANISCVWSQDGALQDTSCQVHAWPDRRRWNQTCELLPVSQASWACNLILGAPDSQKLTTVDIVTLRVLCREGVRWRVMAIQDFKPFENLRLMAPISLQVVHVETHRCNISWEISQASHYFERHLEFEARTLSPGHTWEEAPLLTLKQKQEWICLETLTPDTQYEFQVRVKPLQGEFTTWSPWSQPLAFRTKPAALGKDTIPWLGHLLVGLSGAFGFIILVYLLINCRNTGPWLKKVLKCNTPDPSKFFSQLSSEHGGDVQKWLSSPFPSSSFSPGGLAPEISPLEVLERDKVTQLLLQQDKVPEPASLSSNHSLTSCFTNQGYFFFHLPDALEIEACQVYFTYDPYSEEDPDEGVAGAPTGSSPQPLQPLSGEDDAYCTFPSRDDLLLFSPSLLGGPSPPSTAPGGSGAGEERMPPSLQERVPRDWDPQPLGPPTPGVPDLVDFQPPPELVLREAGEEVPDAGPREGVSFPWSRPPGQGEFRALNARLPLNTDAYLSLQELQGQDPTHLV
T1 sequence (looked up) 2: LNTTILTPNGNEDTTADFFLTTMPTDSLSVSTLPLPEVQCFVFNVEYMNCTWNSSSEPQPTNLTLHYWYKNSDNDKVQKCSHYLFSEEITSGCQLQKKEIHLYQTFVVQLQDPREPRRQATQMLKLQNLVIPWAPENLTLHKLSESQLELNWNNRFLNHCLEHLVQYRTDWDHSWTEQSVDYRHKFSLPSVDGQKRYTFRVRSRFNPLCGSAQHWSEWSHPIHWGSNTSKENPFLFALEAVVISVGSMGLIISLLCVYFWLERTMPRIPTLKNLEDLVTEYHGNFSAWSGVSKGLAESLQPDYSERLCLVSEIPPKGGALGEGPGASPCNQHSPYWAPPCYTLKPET
Assay: cell-based or functional assay
Bridges are numbered along the chain shown (N, C = ends). [ ]: non-standard residue; d: D form. cleavable peptide, 4x polyethylene glycol = not defined here; Ygp = O-(8x polyethylene glycol-amino)-tyrosine; Yn3 = O-(9x polyethylene glycol-azido)-tyrosine; 4x polyethylene glycol = not defined here; hSer = N[C@@H](CCO)C(=O)O; Nle = CCCC[C@H](N)C(=O)O
OBSERVED PROPERTY: Average EC50, pSTAT5 assay in pan T cells, intact molecule
Answer format: value, then unit.

Examples from the recorded data:
BINDER	RESULT
CMP-157 (ligand, linker N-25 via 4x polyethylene glycol; reading uncertain) PLGLAGAPTSSSTKKTQLQLEHLLEDLQ[Nle]ILNGINNYKNPKLTR[Nle]L[hSer][Yn3]KF[Ygp][Nle]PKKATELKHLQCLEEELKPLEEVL[hSer]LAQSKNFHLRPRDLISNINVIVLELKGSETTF[hSer]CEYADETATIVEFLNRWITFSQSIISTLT	54.5 nM
CMP-154 (ligand, linker N-35 via 9x polyethylene glycol) PLGLAGAPTSSSTKKTQLQLEHLLLDLQ[Nle]ILNGIENYKNPKLTR[Nle]L[hSer][Yn3]KF[Ygp][Nle]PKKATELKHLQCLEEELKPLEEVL[hSer]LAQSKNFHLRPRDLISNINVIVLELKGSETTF[hSer]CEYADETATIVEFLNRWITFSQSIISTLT	24.7 nM

Below: the item to evaluate.
What value of Average EC50, pSTAT5 assay in pan T cells, intact molecule has been recorded for this entry: CMP-158 (ligand, linker N-22 via cleavable peptide, 4x polyethylene glycol; not fully specified; reading uncertain) APTSSSTKKTQLQLEHLLLDLE[Nle]ILNGINNYKNPKLTR[Nle]L[hSer][Yn3]KF[Ygp][Nle]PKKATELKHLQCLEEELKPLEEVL[hSer]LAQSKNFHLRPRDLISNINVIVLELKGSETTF[hSer]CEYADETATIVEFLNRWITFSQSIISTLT
36.6 nM

Where do these numbers come from? They come from patent US20240417436A1.
